These entries and their values trace back to PubChem BioAssay.

- test-protocol: human hepatoma cell viability loss – ATP luminescence, cytotoxicity control for P. falciparum antimalarial project, primary screen (AID 2303);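 note: 0% = DMSO wells and 100% = digitonin-killed cells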
- setup-conditions: HepG2 viability, 24-48 h, at 10 µM, hits give high values
measured-property: inhibition (%)
Answers are plain numbers, in %.

Query: What does the data say about its inhibition? Entry: "Cc1csc(-c2nonc2NC(=O)COc2ccccc2C(C)C)n1"
Result: 14

Record inhibition per entry; entries follow.
1. COc1cc2nc(C)nc(Nc3ccc(Oc4ccccc4)cc3)c2cc1OC
2. CCOC(=O)CC[C@H](NC(=O)c1ccc(NS(=O)(=O)c2ccc(-c3cnc(N)[nH]c3=O)cc2)cc1)C(=O)OCC
3. CCCNCc1ccc(-c2ccc(CN(Cc3cnc(C)cn3)C(=O)/C=C/c3ccccc3C)cc2)nc1
4. CCn1c(-c2nonc2N)nc2c(-c3cccc(NC(=O)Nc4cccc(OC)c4)c3)ncc(OCCCN)c21

Result:
-8
5
7
1
